The reported measurements were obtained from paper PMC8159961.

target: human 5-HT7b receptor (Homo sapiens, UniProt P34969); construct: expressed in transfected cells; experiment: GPCR radioligand binding assay, [3H]-5-CT displacement, HEK293 membranes; conditions: 5-HT7; replicate exp_2
Sequence (P34969 1-432): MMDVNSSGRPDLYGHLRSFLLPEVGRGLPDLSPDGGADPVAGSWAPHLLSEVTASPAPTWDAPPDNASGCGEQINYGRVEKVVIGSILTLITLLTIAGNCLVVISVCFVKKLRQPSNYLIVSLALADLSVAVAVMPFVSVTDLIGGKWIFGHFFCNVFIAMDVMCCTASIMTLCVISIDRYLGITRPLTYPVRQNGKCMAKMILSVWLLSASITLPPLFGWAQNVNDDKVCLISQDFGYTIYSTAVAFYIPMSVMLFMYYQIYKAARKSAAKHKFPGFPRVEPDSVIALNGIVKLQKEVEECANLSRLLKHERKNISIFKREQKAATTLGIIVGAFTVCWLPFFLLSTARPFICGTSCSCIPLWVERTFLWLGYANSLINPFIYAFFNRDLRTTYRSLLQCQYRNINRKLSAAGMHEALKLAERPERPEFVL
Entries and their %inh 5-HT7 exp_2
State the value with its unit after it.

Below, 3 molecules whose answers are already recorded.
1) c1ccc2oc(C3CCCNC3)nc2c1 (stereo not shown) [D10]    3.22%
2) N#CC1CCS(=O)(=O)C1 (stereo not shown) [F2]    19%
3) Cn1nc(C(F)(F)F)cc1O [H6]    14%

Turning now to a further record.
Prompt: Sample O=c1ccc2c([nH]1)CCCC2 [C5] — what was its %inh 5-HT7 exp_2?
Completion: 1.43%
